Parameter pIC50: see the listing below.
Target: UniProt Q8NET8
Sequence (Q8NET8 1-790): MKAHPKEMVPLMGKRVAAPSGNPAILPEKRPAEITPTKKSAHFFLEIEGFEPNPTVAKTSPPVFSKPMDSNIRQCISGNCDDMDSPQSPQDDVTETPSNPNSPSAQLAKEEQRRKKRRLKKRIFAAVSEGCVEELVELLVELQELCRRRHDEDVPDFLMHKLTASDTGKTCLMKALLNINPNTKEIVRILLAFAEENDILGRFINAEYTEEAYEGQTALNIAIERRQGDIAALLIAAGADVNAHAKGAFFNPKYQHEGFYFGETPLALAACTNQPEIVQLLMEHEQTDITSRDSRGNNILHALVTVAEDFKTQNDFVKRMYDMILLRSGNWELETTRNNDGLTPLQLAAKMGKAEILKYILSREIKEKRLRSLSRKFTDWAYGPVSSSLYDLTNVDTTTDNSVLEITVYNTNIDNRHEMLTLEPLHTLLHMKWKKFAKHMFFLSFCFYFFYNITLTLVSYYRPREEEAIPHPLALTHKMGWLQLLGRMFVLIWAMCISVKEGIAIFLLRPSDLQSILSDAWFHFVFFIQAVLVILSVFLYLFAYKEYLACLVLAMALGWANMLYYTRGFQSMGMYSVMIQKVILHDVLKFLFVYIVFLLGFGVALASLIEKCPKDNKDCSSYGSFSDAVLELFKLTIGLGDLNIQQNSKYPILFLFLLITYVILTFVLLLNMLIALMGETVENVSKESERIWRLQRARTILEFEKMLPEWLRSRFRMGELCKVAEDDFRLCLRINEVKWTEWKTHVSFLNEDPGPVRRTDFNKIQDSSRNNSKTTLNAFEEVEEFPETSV
Assay: 45Calcium uptake assay: inhibition of 2-APB induced cellular uptake of radioactive calcium
Settings: human TRPV3 expressing CHO cells; 2-APB 500 μM
pIC50: −log10 of the molar value.

[
  {
    "compound": "COc1cccc(CCC(=O)N[C@H]2CC3(CCC3)Oc3c(Cl)cccc32)c1OC1CCCC1",
    "measurement_kind": "pIC50",
    "observed_value": "6.00 to 6.30"
  },
  {
    "compound": "COc1cccc(CCCC(=O)NC2CC(C)(C)Oc3ccc(Cl)cc32)c1OC1CCCC1 (stereo not drawn)",
    "measurement_kind": "pIC50",
    "observed_value": "6.00 to 6.30"
  },
  {
    "compound": "O=C(Cc1cccc2ccccc12)N[C@@H]1CC2(CCC2)Oc2ccc(Cl)cc21",
    "measurement_kind": "pIC50",
    "observed_value": "6.00 to 6.30"
  },
  {
    "compound": "COc1cccc(CCC(=O)NC2CC3(CCC3)Oc3ccc(Cl)cc32)c1OCC1CC1 (stereo not drawn)",
    "measurement_kind": "pIC50",
    "observed_value": "6.00 to 6.30"
  },
  {
    "compound": "COc1cccc(CCCC(=O)N[C@H]2CC3(CCC3)Oc3ccc(Cl)cc32)c1OC1CCCC1",
    "measurement_kind": "pIC50",
    "observed_value": "> 6.30"
  },
  {
    "compound": "COc1ccc2ccccc2c1CCC(=O)N[C@H]1CC2(CCC2)Oc2ccc(Cl)cc21",
    "measurement_kind": "pIC50",
    "observed_value": "6.00 to 6.30"
  },
  {
    "compound": "CCOc1c(CCC(=O)NC2CC3(CCC3)Oc3c(Cl)cccc32)cccc1OC (stereo not drawn)",
    "measurement_kind": "pIC50",
    "observed_value": "6.00 to 6.30"
  },
  {
    "compound": "O=C(CCc1ccc(OC(F)F)c2ccccc12)N[C@H]1CC2(CCC2)Oc2ccc(Cl)cc21",
    "measurement_kind": "pIC50",
    "observed_value": "6.00 to 6.30"
  }
]

Problem: # input compound: O=C(CCc1cccc2c1oc1ccccc12)NC1CC2(CCC2)Oc2ccc(Cl)cc21 (stereo not drawn) ; wanted: its pIC50
Solution: > 6.30

----------
Molecular target: Human TRPV3 (Homo sapiens)
Construct: expressed in transfected cells; host or cells: CHO cells (G-418 selected)
Sequence (Q8NET8 1-790): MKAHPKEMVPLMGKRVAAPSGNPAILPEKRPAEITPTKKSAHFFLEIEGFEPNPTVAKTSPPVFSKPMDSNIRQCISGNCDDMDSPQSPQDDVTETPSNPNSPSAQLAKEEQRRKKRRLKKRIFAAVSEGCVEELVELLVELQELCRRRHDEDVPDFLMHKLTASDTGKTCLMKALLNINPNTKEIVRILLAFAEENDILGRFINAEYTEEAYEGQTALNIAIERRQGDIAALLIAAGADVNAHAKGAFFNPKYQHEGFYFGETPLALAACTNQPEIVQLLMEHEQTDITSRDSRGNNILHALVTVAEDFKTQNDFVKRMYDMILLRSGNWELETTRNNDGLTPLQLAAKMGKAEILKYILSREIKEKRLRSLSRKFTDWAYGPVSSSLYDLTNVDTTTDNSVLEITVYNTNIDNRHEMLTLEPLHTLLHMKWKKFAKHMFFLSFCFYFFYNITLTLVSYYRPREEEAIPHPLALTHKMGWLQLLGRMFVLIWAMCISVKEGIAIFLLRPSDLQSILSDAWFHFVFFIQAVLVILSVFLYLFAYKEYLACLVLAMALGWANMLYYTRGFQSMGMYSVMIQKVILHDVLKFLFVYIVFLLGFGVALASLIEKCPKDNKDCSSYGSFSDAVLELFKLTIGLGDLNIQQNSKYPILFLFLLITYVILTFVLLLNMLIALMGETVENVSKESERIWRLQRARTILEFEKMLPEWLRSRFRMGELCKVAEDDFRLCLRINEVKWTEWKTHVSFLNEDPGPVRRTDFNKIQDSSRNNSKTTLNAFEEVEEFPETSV
Test: 45Calcium uptake assay: inhibition of 2-APB induced cellular uptake of radioactive calcium
Format: cell-based
Conditions: 1.0 μM compound; human TRPV3 expressing CHO cells; 2-APB 500 μM; read-out: Percentage inhibition at 1.0 μM
Protocol: The illustrative examples of the present invention are screened for TRPV3 activity according to a modified procedure described in Toth, A. et al. Life Sciences (2003), 73, 487-498. […] The inhibition of TRPV3 receptor activation was followed as inhibition of 2-APB induced cellular uptake of radioactive calcium. […] Radioactivity in the lysate was measured in Packardt Top count after addition of liquid scintillant. […]
The threshold is inclusive: inhibition at 1 µM of exactly 30% counts as met; values below receive not met.

Record excerpt, results attached:
[
  {
    "compound": "COc1ccc(C(O)CCC(=O)NC2CC3(CCC3)Oc3ccc(Cl)cc32)c2ccccc12 (centres unmarked)",
    "assigned_label": "not met"
  },
  {
    "compound": "COc1ccc2cc(CCC(=O)N[C@@H]3CC4(CCC4)Oc4ccc(Cl)cc43)ccc2c1",
    "assigned_label": "met"
  },
  {
    "compound": "O=C(CCc1ccccc1OC1CCCC1)N[C@H]1CC2(CCC2)Oc2cc(OCc3ccccc3)ccc21",
    "assigned_label": "not met"
  },
  {
    "compound": "COc1cccc(CCC(=O)N[C@H]2CC3(CCC3)Oc3ccc(Cl)cc32)c1OC1CCCC1",
    "assigned_label": "met"
  },
  {
    "compound": "COc1cccc(CCC(=O)NC2CC3(CCC3)Oc3ccc(Cl)cc32)c1OC (centres unmarked)",
    "assigned_label": "not met"
  }
]

Problem: Entry COc1cccc(CCC(=O)NC2CC3(CCC3)Oc3cccc(OC)c32)c1OC1CCCC1 (centres unmarked) : is its inhibition at 1 µM no less than 30%?
Solution: met

Problem: Same thing, different compound: "O=C(Cc1cccc2ccccc12)N[C@H]1CC2(CCC2)Oc2c(Cl)cccc21"
Solution: not met

Problem: Same thing, different compound: O=C(Cc1ccccc1)NC1CC2(CCC2)Oc2c(Cl)cccc21 (centres unmarked)
Solution: not met

----------
Target: Human TRPV3 (Homo sapiens, UniProt Q8NET8)
Construct: expressed in transfected cells; host or cells: CHO cells (G-418 selected)
Sequence (Q8NET8 1-790): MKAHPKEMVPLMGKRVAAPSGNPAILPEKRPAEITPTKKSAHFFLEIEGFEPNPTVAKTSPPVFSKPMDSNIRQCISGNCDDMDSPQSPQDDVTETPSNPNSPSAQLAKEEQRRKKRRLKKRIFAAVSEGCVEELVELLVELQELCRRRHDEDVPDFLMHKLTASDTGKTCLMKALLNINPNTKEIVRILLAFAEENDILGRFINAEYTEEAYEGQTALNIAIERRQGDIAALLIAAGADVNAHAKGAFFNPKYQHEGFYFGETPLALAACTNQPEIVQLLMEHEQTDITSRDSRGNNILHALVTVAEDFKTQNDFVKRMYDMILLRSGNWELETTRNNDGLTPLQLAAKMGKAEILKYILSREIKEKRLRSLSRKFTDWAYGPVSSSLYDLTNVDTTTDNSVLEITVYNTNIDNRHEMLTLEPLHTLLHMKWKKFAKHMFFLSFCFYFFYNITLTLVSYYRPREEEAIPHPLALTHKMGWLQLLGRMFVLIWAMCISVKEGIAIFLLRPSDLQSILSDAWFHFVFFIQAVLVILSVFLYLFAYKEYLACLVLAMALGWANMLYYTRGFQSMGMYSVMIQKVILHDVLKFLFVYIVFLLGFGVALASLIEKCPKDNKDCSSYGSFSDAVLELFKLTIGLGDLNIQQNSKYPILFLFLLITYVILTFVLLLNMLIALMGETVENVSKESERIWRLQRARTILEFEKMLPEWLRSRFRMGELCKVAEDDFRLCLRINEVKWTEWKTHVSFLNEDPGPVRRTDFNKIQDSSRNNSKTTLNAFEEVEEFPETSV
Experiment: 45Calcium uptake assay: inhibition of 2-APB induced cellular uptake of radioactive calcium
Type: cell-based
Conditions: 10.0 μM compound; human TRPV3 expressing CHO cells; 2-APB 500 μM; read-out: Percentage inhibition at 10.0 μM
The threshold is inclusive: inhibition at 10 µM of exactly 90% counts as label 1; values below receive label 0.

Record excerpt, results attached:
[
  {
    "compound": "O=C(CCc1ccc2ccccc2c1)NC1CC2(CCC2)Oc2ccc(Cl)cc21 (centres unmarked)",
    "target_or_test_system": "Human TRPV3 (Homo sapiens, UniProt Q8NET8)",
    "assigned_label": "label 0"
  },
  {
    "compound": "COc1cccc(CCC(=O)NC2CC3(CCC3)Oc3ccc(Cl)cc32)c1OC (centres unmarked)",
    "target_or_test_system": "Human TRPV3 (Homo sapiens, UniProt Q8NET8)",
    "assigned_label": "label 0"
  },
  {
    "compound": "COc1cccc(CCC(=O)NC2CC3(CCC3)Oc3ccc(Cl)cc32)c1OCC1CC1 (centres unmarked)",
    "target_or_test_system": "Human TRPV3 (Homo sapiens, UniProt Q8NET8)",
    "assigned_label": "label 1"
  },
  {
    "compound": "COc1cccc(CCC(=O)NC2CC3(CCC3)Oc3cccc(O)c32)c1OC1CCCC1 (centres unmarked)",
    "target_or_test_system": "Human TRPV3 (Homo sapiens, UniProt Q8NET8)",
    "assigned_label": "label 0"
  },
  {
    "compound": "COc1cccc(CCC(=O)NC2CC3(CCCC3)Oc3ccc(Cl)cc32)c1OC1CCCC1 (centres unmarked)",
    "target_or_test_system": "Human TRPV3 (Homo sapiens, UniProt Q8NET8)",
    "assigned_label": "label 0"
  }
]

With those in mind, consider the next compound.
Problem: Entry COc1cccc(CCC(=O)NC2CC3(CCC3)Oc3c(Cl)cc(Cl)cc32)c1OCCN(C)C (centres unmarked) : is its inhibition at 10 µM no less than 90%?
Solution: label 0

Data origin: patent US8487121B2
